The measurements presented in this section are drawn from patent EP0555537B1.

Consider the following compounds; for each one, report its inhibition at 1.1 µM.
Molecular target: ETB receptor (Sus scrofa, UniProt P35463)
Construct: ETB receptors of porcine cerebellum membrane suspension used in the present experiments; from tissue; host or cells: porcine cerebellum membrane fraction
Sequence (P35463 27-443): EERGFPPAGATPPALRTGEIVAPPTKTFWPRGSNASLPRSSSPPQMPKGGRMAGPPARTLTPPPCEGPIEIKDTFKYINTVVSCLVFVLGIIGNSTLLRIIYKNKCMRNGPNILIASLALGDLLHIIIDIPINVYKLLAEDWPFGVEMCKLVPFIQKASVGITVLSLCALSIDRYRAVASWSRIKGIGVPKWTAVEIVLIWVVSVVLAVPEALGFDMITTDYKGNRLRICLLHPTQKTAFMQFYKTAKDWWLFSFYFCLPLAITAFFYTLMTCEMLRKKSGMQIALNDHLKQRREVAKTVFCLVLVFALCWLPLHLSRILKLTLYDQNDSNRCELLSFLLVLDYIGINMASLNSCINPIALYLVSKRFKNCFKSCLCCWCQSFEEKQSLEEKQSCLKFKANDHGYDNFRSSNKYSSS
Assay: Endothelin binding inhibition test (^125I-endothelin-1, porcine cerebellum membrane suspension)
Details: 1.1 µM of the test compound, triplicate
Numbered stars: 1 amine (or outer) side, 2 acyl side, 3 side chain; on linkers, the order of the positions; unused ones are H or OH. Square brackets hold non-standard residues; d marks the D form. Peptide text beside a SMILES is read from it. * marks the point of attachment. dNle = CCCC[C@@H](N)C(=O)O; Pyrrolidide = C1CCN(*)C1; dAbu = CC[C@@H](N)C(=O)O; Boc = CC(C)(C)OC(=O)*; CO = O=C([*:1])[*:2]; NHtBu = CC(C)(C)N*; Moc = COC(=O)*

Here is how some compounds turned out for inhibition at 1.1 µM.
Compound	Experimental system	Reported value
CCCC[C@@H](NC(=O)[C@@H](Cc1c(Cl)[nH]c2ccccc12)NC(=O)[C@H](CC(C)C)NC(=O)N1C(C)CCCC1C)C(=O)O (stereo partly shown)	ETB receptor (Sus scrofa, UniProt P35463)	97%
CCCC[C@@H](NC(=O)[C@@H](Cc1cn(C(=O)OC)c2ccccc12)NC(=O)[C@H](CC(C)C)NC(=O)NC12CC3CC(CC(C3)C1)C2)C(=O)O	ETB receptor (Sus scrofa, UniProt P35463)	97%
CCCC[C@@H](NC(=O)[C@@H](Cc1cn(C(=O)OC)c2ccccc12)NC(=O)[C@H](CC(C)C)NC(=O)NC(C)(C)C)C(=O)O [Compound 27] ({NHtBu-CO}-Leu-[dW](Moc)-[dNle]-OH)	ETB receptor (Sus scrofa, UniProt P35463)	91%

I need inhibition at 1.1 µM for every entry listed below, if you could help.
1. CCCC[C@@H](NC(=O)[C@@H](Cc1cn(C(=O)OC)c2ccccc12)NC(=O)[C@H](CC(C)C)NC(=O)Nc1ccccc1Cl)C(=O)O
2. CCCC[C@@H](NC(=O)[C@@H](Cc1cn(C(=O)OC)c2ccccc12)NC(=O)[C@H](CC(C)C)NC(=O)Nc1c(Cl)cccc1Cl)C(=O)O
3. CC[C@@H](NC(=O)[C@@H](Cc1cn(C(=O)OC)c2ccccc12)NC(=O)[C@H](CC(C)C)NC(=O)OC(C)(C)C)C(=O)O [Compound 26] (Boc-Leu-[dW](Moc)-[dAbu]-OH)
4. CCCC[C@@H](NC(=O)[C@@H](Cc1cn(C(=O)OC)c2ccccc12)NC(=O)[C@H](CC(C)C)NC(=O)N(CCC)C1CCCC1)C(=O)O
5. CCCC[C@@H](NC(=O)[C@@H](Cc1c(Cl)[nH]c2ccccc12)NC(=O)[C@H](CC(C)C)NC(=O)N1CCCCCC1)C(=O)O
6. CCCC[C@@H](NC(=O)[C@@H](Cc1cn(C(=O)OC)c2ccccc12)NC(=O)[C@H](CC(C)C)NC(=O)N1CCCC1)C(=O)O [Compound 11] ({Pyrrolidide-CO}-Leu-[dW](Moc)-[dNle]-OH)
7. CCCC[C@@H](NC(=O)[C@@H](Cc1cn(C(=O)OC)c2ccccc12)NC(=O)[C@H](CC(C)C)NC(=O)N1CCCCCC1)C(=O)O

1: 99%; 2: 94%; 3: 71%; 4: 95%; 5: 93%; 6: 73%; 7: 99%
